- TEST SYSTEM: κ-opioid receptor (KOR) (Homo sapiens, UniProt P41145)
- Sequence (P41145 whole entry): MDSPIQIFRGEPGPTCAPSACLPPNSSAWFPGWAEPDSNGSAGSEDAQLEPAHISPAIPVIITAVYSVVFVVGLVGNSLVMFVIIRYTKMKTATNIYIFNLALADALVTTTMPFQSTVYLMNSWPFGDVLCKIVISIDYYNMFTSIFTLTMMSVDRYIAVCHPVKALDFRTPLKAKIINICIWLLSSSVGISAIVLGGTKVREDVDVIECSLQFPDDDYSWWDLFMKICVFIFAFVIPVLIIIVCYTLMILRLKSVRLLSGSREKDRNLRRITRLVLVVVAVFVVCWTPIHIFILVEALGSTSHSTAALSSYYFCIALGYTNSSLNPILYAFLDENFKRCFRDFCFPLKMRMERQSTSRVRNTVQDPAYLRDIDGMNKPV
- Format: binding
PARAMETER: Selectivity DOR/KOR

[[record]]
molecule = "COC(=O)[C@@H]1C[C@H](OC(=O)/C=C/c2ccc(OC)cc2)C(=O)[C@H]2[C@@]1(C)CC[C@H]1C(=O)O[C@H](c3ccoc3)C[C@]21C [5c, 2-O-(4″-Methoxycinnamoyl)salvinorin B]"
reported_measurement = ">74"

[[record]]
molecule = "C/C=C(\\C)C(=O)O[C@H]1C[C@@H](C(=O)OC)[C@]2(C)CC[C@H]3C(=O)O[C@H](c4ccoc4)C[C@]3(C)[C@H]2C1=O [4g, 2-O-(2′,3′-Dimethylacryloyl)salvinorin B]"
reported_measurement = ">65"

[[record]]
molecule = "COC(=O)[C@@H]1C[C@H](OC(=O)/C=C/c2ccc(OC)cc2OC)C(=O)[C@H]2[C@@]1(C)CC[C@H]1C(=O)O[C@H](c3ccoc3)C[C@]21C [5e]"
reported_measurement = ">62"

[[record]]
molecule = "COC(=O)[C@@H]1C[C@H](OC(=O)/C=C/c2cc(C(F)(F)F)ccc2C(F)(F)F)C(=O)[C@H]2[C@@]1(C)CC[C@H]1C(=O)O[C@H](c3ccoc3)C[C@]21C [5l]"
reported_measurement = "<0.58"

[[record]]
molecule = "COC(=O)[C@@H]1C[C@H](OC(=O)/C=C/c2ccc3c(c2)OCO3)C(=O)[C@H]2[C@@]1(C)CC[C@H]1C(=O)O[C@H](c3ccoc3)C[C@]21C [5g]"
reported_measurement = ">31"

[[record]]
molecule = "COC(=O)[C@@H]1C[C@H](OC(=O)/C=C/c2ccccc2C(F)(F)F)C(=O)[C@H]2[C@@]1(C)CC[C@H]1C(=O)O[C@H](c3ccoc3)C[C@]21C [5j]"
reported_measurement = ">77"

[[record]]
molecule = "COC(=O)[C@@H]1C[C@H](OC(=O)/C=C/c2ccc([N+](=O)[O-])cc2)C(=O)[C@H]2[C@@]1(C)CC[C@H]1C(=O)O[C@H](c3ccoc3)C[C@]21C [5i, 2-O-(4″-Nitrocinnamoyl)salvinorin B]"
reported_measurement = ">35"

[[record]]
molecule = "C=CC(=O)O[C@H]1C[C@@H](C(=O)OC)[C@]2(C)CC[C@H]3C(=O)O[C@H](c4ccoc4)C[C@]3(C)[C@H]2C1=O [4a, 2-O-Acryloylsalvinorin B]"
reported_measurement = ">552"

[[record]]
molecule = "COC(=O)[C@@H]1C[C@H](OC(=O)/C=C/c2cc(OC)ccc2OC)C(=O)[C@H]2[C@@]1(C)CC[C@H]1C(=O)O[C@H](c3ccoc3)C[C@]21C [5d]"
reported_measurement = ">17"

[[record]]
molecule = "COC(=O)[C@@H]1C[C@H](OC(=O)/C=C/c2ccccc2OC)C(=O)[C@H]2[C@@]1(C)CC[C@H]1C(=O)O[C@H](c3ccoc3)C[C@]21C [5b, 2-O-(2″-Methoxycinnamoyl)salvinorin B]"
reported_measurement = ">154"

